experimental_system: chimeric Caspase-9 polypeptide
Sequence (P62942 2-108 F37V limits assumed): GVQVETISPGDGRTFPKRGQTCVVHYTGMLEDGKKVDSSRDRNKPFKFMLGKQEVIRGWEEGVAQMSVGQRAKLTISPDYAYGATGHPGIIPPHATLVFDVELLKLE
experiment: Caspase-9 mutant classes and basal activity (Table 5)
Type: cell-based
measurement_conditions: Caspase-9 mutant class; ligand IC50 compared with unmodified chimeric Caspase-9
endpoint_name: IC50

molecule	IC50
D315A (protein) GFGDVGALESLRGNADLAYILSMEPCGHCLIINNVNFCRESGLRTRTGSNIDCEKLRRRFSSLHFMVEVKGDLTAKKMVLALLELARQDHGALDCCVVVILSHGCQASHLQFPGAVYGTDGCPVSVEKIVNIFNGTSCPSLGGKPKLFFIQACGGEQKDHGFEVASTSPEDESPGSNPEPAATPFQEGLRTFDQLDAISSLPTPSDIFVSYSTFPGFVSWRDPKSGSWYVETLDDIFEQWAHSEDLQSLLLRVANAVSVKGIYKQMPGCFNFLRKKLFFKTSASRA	much higher
A316G (protein) GFGDVGALESLRGNADLAYILSMEPCGHCLIINNVNFCRESGLRTRTGSNIDCEKLRRRFSSLHFMVEVKGDLTAKKMVLALLELARQDHGALDCCVVVILSHGCQASHLQFPGAVYGTDGCPVSVEKIVNIFNGTSCPSLGGKPKLFFIQACGGEQKDHGFEVASTSPEDESPGSNPEPDGTPFQEGLRTFDQLDAISSLPTPSDIFVSYSTFPGFVSWRDPKSGSWYVETLDDIFEQWAHSEDLQSLLLRVANAVSVKGIYKQMPGCFNFLRKKLFFKTSASRA	much higher
F406Y (protein) GFGDVGALESLRGNADLAYILSMEPCGHCLIINNVNFCRESGLRTRTGSNIDCEKLRRRFSSLHFMVEVKGDLTAKKMVLALLELARQDHGALDCCVVVILSHGCQASHLQFPGAVYGTDGCPVSVEKIVNIFNGTSCPSLGGKPKLFFIQACGGEQKDHGFEVASTSPEDESPGSNPEPDATPFQEGLRTFDQLDAISSLPTPSDIFVSYSTFPGFVSWRDPKSGSWYVETLDDIFEQWAHSEDLQSLLLRVANAVSVKGIYKQMPGCFNYLRKKLFFKTSASRA	higher IC50
F404Y (protein) GFGDVGALESLRGNADLAYILSMEPCGHCLIINNVNFCRESGLRTRTGSNIDCEKLRRRFSSLHFMVEVKGDLTAKKMVLALLELARQDHGALDCCVVVILSHGCQASHLQFPGAVYGTDGCPVSVEKIVNIFNGTSCPSLGGKPKLFFIQACGGEQKDHGFEVASTSPEDESPGSNPEPDATPFQEGLRTFDQLDAISSLPTPSDIFVSYSTFPGFVSWRDPKSGSWYVETLDDIFEQWAHSEDLQSLLLRVANAVSVKGIYKQMPGCYNFLRKKLFFKTSASRA	higher IC50

The reported value for D330S (protein) GFGDVGALESLRGNADLAYILSMEPCGHCLIINNVNFCRESGLRTRTGSNIDCEKLRRRFSSLHFMVEVKGDLTAKKMVLALLELARQDHGALDCCVVVILSHGCQASHLQFPGAVYGTDGCPVSVEKIVNIFNGTSCPSLGGKPKLFFIQACGGEQKDHGFEVASTSPEDESPGSNPEPDATPFQEGLRTFDQLSAISSLPTPSDIFVSYSTFPGFVSWRDPKSGSWYVETLDDIFEQWAHSEDLQSLLLRVANAVSVKGIYKQMPGCFNFLRKKLFFKTSASRA in terms of IC50 is higher IC50

The reported value for F406T (protein) GFGDVGALESLRGNADLAYILSMEPCGHCLIINNVNFCRESGLRTRTGSNIDCEKLRRRFSSLHFMVEVKGDLTAKKMVLALLELARQDHGALDCCVVVILSHGCQASHLQFPGAVYGTDGCPVSVEKIVNIFNGTSCPSLGGKPKLFFIQACGGEQKDHGFEVASTSPEDESPGSNPEPDATPFQEGLRTFDQLDAISSLPTPSDIFVSYSTFPGFVSWRDPKSGSWYVETLDDIFEQWAHSEDLQSLLLRVANAVSVKGIYKQMPGCFNTLRKKLFFKTSASRA in terms of IC50 is much higher

The reported value for N405Q-S144D (protein) GFGDVGALEDLRGNADLAYILSMEPCGHCLIINNVNFCRESGLRTRTGSNIDCEKLRRRFSSLHFMVEVKGDLTAKKMVLALLELARQDHGALDCCVVVILSHGCQASHLQFPGAVYGTDGCPVSVEKIVNIFNGTSCPSLGGKPKLFFIQACGGEQKDHGFEVASTSPEDESPGSNPEPDATPFQEGLRTFDQLDAISSLPTPSDIFVSYSTFPGFVSWRDPKSGSWYVETLDDIFEQWAHSEDLQSLLLRVANAVSVKGIYKQMPGCFQFLRKKLFFKTSASRA in terms of IC50 is higher IC50
